Could you please report measured MIC Staphylococcus aureus F-4 for the items listed next?
test system: Staphylococcus aureus; experiment: MIC against clinical isolates; assay type: cell-based; details: Table 5-1, clinical isolate; unit assumed
Could you give me the number in µg/mL? Just the number is fine.

Consider the compound shown here: CC1(C)S[C@@H]2[C@H](NC(=O)C(C(=O)O)c3ccccc3)C(=O)N2[C@H]1C(=O)O (stereo partly shown) [Sodium Carbenicillin, reference compound] What is its recorded MIC Staphylococcus aureus F-4?
12.5

What value of MIC Staphylococcus aureus F-4 has been reported for the following compound? "CCN1CCN(C(=O)N[C@@H](C(=O)N[C@@H]2C(=O)N3[C@@H]2SC(C)(C)[C@@H]3C(=O)O)c2ccccc2)C(=O)C1=O"
6.25

What measured MIC Staphylococcus aureus F-4 goes with CCCCCCN1CCN(C(=O)NC(C(=O)NC2C(=O)N3C2SC(C)(C)C3C(=O)O)c2ccccc2)C(=O)C1=O (single isomer, unassigned) ?
6.25

Data request, read-out MIC Staphylococcus aureus F-4, for "CCCCN1CCN(C(=O)N[C@@H](C(=O)N[C@@H]2C(=O)N3[C@@H]2SC(C)(C)[C@@H]3C(=O)O)c2ccccc2)C(=O)C1"
6.25

What value of MIC Staphylococcus aureus F-4 has been reported for the following compound? CN1CCN(C(=O)NC(C(=O)NC2C(=O)N3C2SC(C)(C)C3C(=O)O)c2ccccc2)C(=O)C1=O (single isomer, unassigned)
6.25

So what's the measured MIC Staphylococcus aureus F-4 for this one? CC(C)N1CCN(C(=O)NC(C(=O)NC2C(=O)N3C2SC(C)(C)C3C(=O)O)c2ccccc2)C(=O)C1=O (single isomer, unassigned)
6.25

Field request: MIC Staphylococcus aureus F-4 | item: "CCCCCCCCN1CCN(C(=O)N[C@@H](C(=O)N[C@@H]2C(=O)N3[C@@H]2SC(C)(C)[C@@H]3C(=O)O)c2ccccc2)C(=O)C1"
6.25

###

test system: Pseudomonas aeruginosa; test: MIC against clinical isolates; assay type: cell-based; details: Table 6-3, clinical isolate; unit assumed
quantity: MIC Pseudomonas aeruginosa GN 376 (µg/mL)
Field: numeric (µg/mL). Do not append units.

Find the recorded MIC Pseudomonas aeruginosa GN 376 belonging to CN1CCN(C(=O)NC(C(=O)NC2C(=O)N3C(C(=O)O)=C(CSc4nnnn4C)CSC23)c2ccccc2)C(=O)C1=O (single isomer, unassigned) and report it.
50

Any idea what its MIC Pseudomonas aeruginosa GN 376 is? The compound is Cc1nnc(SCC2=C(C(=O)O)N3C(=O)C(NC(=O)C(NC(=O)N4CCN(C)C(=O)C4=O)c4ccccc4)C3SC2)s1 (single isomer, unassigned)
100

I am curious: what MIC Pseudomonas aeruginosa GN 376 value has been reported for CCN1CCN(C(=O)NC(C(=O)NC2C(=O)N3C(C(=O)O)=C(CSc4nnnn4C)CSC23)c2ccc(O)cc2)C(=O)C1=O (centres unmarked) ?
6.25

Param item = CCN1CCN(C(=O)NC(C(=O)NC2C(=O)N3C(C(=O)O)=C(CSc4nnnn4CC)CSC23)c2ccc(O)cc2)C(=O)C1=O (single isomer, unassigned) ; retrieve measured MIC Pseudomonas aeruginosa GN 376.
12.5

###

system: Staphylococcus aureus; assay: MIC against clinical isolates; type: cell-based; conditions: Table 6-1, clinical isolate; unit assumed
Give measured MIC Staphylococcus aureus MS 8684 for each item. Keep answers brief.
Respond with the bare value in µg/mL.

Missing value: MIC Staphylococcus aureus MS 8684, Staphylococcus aureus, entry CCN1CCN(C(=O)NC(C(=O)NC2C(=O)N3C(C(=O)O)=C(CSc4nnnn4CC)CSC23)c2ccc(O)cc2)C(=O)C1=O (single isomer, unassigned) [Compound No. 78] . Fill in?
1.56

Notebook: pull reported MIC Staphylococcus aureus MS 8684 for Staphylococcus aureus, entry CCN1CCN(C(=O)NC(C(=O)NC2C(=O)N3C(C(=O)O)=C(CSc4nnnn4CC)CSC23)c2ccccc2)C(=O)C1=O (single isomer, unassigned) [Compound No. 77]
1.56

Give recorded MIC Staphylococcus aureus MS 8684 with Staphylococcus aureus for the following molecule: CCN1CCN(C(=O)NC(C(=O)NC2C(=O)N3C(C(=O)O)=C(CSc4nnnn4C)CSC23)c2ccc(O)cc2)C(=O)C1=O (stereo not drawn) [Compound No. 72]
1.56
